targetDesc: UniProt:P10635
Sequence (P10635 whole entry): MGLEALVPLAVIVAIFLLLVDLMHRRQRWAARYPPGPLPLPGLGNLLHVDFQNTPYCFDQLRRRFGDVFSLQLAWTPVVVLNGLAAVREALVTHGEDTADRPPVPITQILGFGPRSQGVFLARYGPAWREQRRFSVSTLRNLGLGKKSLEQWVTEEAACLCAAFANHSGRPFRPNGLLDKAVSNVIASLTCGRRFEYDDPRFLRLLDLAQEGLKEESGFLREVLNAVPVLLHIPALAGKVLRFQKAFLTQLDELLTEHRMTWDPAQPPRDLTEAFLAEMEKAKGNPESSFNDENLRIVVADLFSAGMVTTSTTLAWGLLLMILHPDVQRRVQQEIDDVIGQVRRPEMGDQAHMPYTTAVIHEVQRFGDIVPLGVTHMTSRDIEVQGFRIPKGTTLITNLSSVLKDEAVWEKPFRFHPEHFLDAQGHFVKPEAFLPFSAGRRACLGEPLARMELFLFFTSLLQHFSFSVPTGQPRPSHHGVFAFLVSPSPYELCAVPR
measurementProtocol: Inhibition of human recombinant CYP2D6 after 30 mins by fluorescence assay
Type: ADME
setupConditions: read-out: Ki
observationType: Ki (nM)
# value in nM; strip the unit string

QUERY: Give the measured Ki of CC/C(=C(/c1ccc(O)cc1)c1ccc(OCCN)cc1)c1ccc(O)cc1 (mixture of isomers) .
RESULT: 423

* * *

targetDesc: Cytochrome P450 3A4 (Homo sapiens, UniProt P08684)
Sequence (P08684 whole entry): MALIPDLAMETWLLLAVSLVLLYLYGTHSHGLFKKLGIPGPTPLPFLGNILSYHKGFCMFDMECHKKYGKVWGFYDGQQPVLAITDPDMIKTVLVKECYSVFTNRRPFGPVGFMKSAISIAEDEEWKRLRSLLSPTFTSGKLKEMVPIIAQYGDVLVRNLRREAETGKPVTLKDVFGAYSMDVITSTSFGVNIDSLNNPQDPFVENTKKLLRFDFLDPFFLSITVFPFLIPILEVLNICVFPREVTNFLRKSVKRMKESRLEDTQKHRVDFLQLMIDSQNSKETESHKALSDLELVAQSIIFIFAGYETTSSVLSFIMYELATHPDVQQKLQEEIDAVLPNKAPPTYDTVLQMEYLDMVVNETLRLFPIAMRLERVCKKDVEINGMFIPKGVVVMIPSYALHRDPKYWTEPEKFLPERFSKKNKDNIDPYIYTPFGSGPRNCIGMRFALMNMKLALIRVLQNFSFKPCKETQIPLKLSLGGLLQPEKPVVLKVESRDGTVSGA
measurementProtocol: Inhibition of human recombinant CYP3A4 assessed as metabolism of 7-benzyloxy-4-trifluoromethylcoumarin to HFC after 30 mins by fluorescence assay
Give measured pIC50 for each item. Keep answers brief.
// returns pIC50 (minus log10 of molar concentration), number only

QUERY: Could you share what pIC50 was measured for CC/C(=C(/c1ccc(O)cc1)c1ccc(OCCN)cc1)c1ccc(O)cc1 (mixture of isomers) , tested on Cytochrome P450 3A4 (Homo sapiens, UniProt P08684)?
RESULT: 5.73

QUERY: What do we get for CC/C(=C(/c1ccc(O)cc1)c1ccc(OCCN)cc1)c1ccccc1 (mixture of isomers) ?
RESULT: 6.55

* * *

targetDesc: Estrogen receptor (Homo sapiens)
measurementProtocol: Displacement of fluorescein-labeled ES2 from human recombinant ERalpha receptor at 100000 nM after 2 hrs by fluorescence polarization assay
Threshold 60%. Activity below it: Criterion met. Activity at it or above: Criterion not met.

QUERY: Identify whether the molecule CC/C(=C(/c1ccccc1)c1ccc(OCCN)cc1)c1ccccc1 (mixture of isomers) records Activity below 60%.
RESULT: Criterion met

QUERY: For CC(C)/C(=C(/c1ccc(O)cc1)c1ccc(OCCN)cc1)c1ccccc1 (mixture of isomers) then?
RESULT: Criterion met

QUERY: Further, for CC/C(=C(/c1ccc(O)cc1)c1ccc(OCC(=O)O)cc1)c1ccccc1 (mixture of isomers) ?
RESULT: Criterion met

QUERY: Quick one: CC/C(=C(/c1ccc(O)cc1)c1ccc(OCCO)cc1)c1ccccc1 (mixture of isomers)
RESULT: Criterion not met

QUERY: Next: CC/C(=C(/c1ccc(O)cc1)c1ccc(OCCCl)cc1)c1ccccc1 (mixture of isomers)
RESULT: Criterion not met

QUERY: N#CC/C(=C(/c1ccc(O)cc1)c1ccc(OCCN)cc1)c1ccccc1 (mixture of isomers) , same question.
RESULT: Criterion met

* * *

targetDesc: Estrogen receptor (Homo sapiens) (UniProt P03372)
Sequence (whole entry): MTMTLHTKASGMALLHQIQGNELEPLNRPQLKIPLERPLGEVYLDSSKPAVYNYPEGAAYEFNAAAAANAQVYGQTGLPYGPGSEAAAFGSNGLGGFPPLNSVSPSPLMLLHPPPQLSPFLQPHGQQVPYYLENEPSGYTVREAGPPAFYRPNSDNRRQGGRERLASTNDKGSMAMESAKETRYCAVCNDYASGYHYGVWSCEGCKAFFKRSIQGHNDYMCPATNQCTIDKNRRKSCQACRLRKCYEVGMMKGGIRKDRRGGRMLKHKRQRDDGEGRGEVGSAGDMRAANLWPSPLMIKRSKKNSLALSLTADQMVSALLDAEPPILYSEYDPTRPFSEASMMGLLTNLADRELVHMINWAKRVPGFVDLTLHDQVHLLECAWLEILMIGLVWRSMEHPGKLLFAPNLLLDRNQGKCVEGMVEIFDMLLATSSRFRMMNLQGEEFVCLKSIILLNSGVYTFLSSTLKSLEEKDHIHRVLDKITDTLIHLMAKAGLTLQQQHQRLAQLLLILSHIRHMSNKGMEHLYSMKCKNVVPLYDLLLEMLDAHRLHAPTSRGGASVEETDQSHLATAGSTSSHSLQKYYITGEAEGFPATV
measurementProtocol: Antiestrogenic effect at estrogen receptor in human MCF7 cells assessed as inhibition of E2-induced progesterone receptor mRNA expression at 1000 nM after 24 hrs by real time quantitative PCR
Type: cell-based
Parameters: scale not given: the % may be the effect or the level left
Binary call on Activity with cut-off 40%: strictly below means 1.0, and equality or higher means 0.0.

QUERY: Hello, I'm reviewing records and need to know if Activity of CC/C(=C(/c1ccc(O)cc1)c1ccc(OCCCN)cc1)c1ccccc1 (mixture of isomers) is below 40%. Could you check?
RESULT: 1.0

QUERY: Same thing, different compound: CC/C(=C(/c1ccc(O)cc1)c1ccc(CCCN)cc1)c1ccccc1 (mixture of isomers)
RESULT: 1.0

QUERY: Also CC/C(=C(/c1ccc(O)cc1)c1ccc(CCCN)cc1)c1ccc(O)cc1 (mixture of isomers) , if possible.
RESULT: 1.0

QUERY: Would you mind doing CC/C(=C(/c1ccc(O)cc1)c1ccc(OCCN)cc1)c1ccc(F)cc1 (mixture of isomers) as well?
RESULT: 0.0

QUERY: Queued: CC/C(=C(/c1ccc(O)cc1)c1ccc(OCCN)cc1)c1ccccc1 (mixture of isomers)
RESULT: 1.0

QUERY: // next record CC/C(=C(/c1ccc(O)cc1)c1ccc(OCCN)cc1)c1ccc(O)cc1 (mixture of isomers)
RESULT: 1.0

QUERY: Also NCCOc1ccc(/C(=C(/Cn2cnnc2)c2ccccc2)c2ccc(O)cc2)cc1 ?
RESULT: 0.0

QUERY: Continue with NCCOc1ccc(/C(=C(\Cn2cnnc2)c2ccccc2)c2ccc(O)cc2)cc1
RESULT: 0.0

QUERY: NCCOc1ccc(/C(=C(\Cn2cncn2)c2ccccc2)c2ccc(O)cc2)cc1 (mixture of isomers) , same question.
RESULT: 0.0

* * *

Give pKi for every item shown.
targetDesc: UniProtKB P08684
measurementProtocol: Inhibition of human recombinant CYP3A4 assessed as metabolism of 7-benzyloxy-4-trifluoromethylcoumarin to HFC after 30 mins by fluorescence assay
The quantity pKi is defined as the negative base-10 logarithm of the molar concentration.

QUERY: # query: pKi | item CC/C(=C(/c1ccc(O)cc1)c1ccc(OCCN)cc1)c1ccc(O)cc1 (mixture of isomers) | system: UniProtKB P08684
RESULT: 5.79

QUERY: Same question for CC/C(=C(/c1ccc(O)cc1)c1ccc(OCCN)cc1)c1ccccc1 (mixture of isomers) please.
RESULT: 6.43

* * *

targetDesc: Estrogen receptor beta (Homo sapiens, UniProt Q92731)
Sequence (Q92731 whole entry): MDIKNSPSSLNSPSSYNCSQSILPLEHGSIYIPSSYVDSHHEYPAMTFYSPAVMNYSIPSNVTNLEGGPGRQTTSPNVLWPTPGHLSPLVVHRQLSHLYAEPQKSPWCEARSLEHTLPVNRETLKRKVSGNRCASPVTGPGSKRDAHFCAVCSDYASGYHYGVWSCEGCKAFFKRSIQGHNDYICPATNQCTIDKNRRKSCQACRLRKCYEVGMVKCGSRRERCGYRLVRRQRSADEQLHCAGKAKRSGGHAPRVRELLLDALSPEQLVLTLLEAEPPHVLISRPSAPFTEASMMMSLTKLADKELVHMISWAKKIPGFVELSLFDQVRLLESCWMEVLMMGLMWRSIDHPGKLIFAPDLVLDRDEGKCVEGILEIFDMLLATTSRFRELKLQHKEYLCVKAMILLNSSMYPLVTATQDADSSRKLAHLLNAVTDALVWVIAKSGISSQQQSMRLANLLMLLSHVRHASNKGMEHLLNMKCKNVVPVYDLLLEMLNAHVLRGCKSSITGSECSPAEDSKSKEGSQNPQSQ
measurementProtocol: Displacement of fluorescein-labeled ES2 from human recombinant ERbeta receptor after 2 hrs by fluorescence polarization assay
observationType: pEC50
Remember the convention: pEC50 equals -log10 of concentration in molar.

QUERY: Lab request: please report pEC50 under test system Estrogen receptor beta (Homo sapiens, UniProt Q92731) for NCCOc1ccc(/C(=C(\CCCl)c2ccccc2)c2ccc(O)cc2)cc1 (mixture of isomers)
RESULT: 7.28

QUERY: Would you kindly repeat that for NCCOc1ccc(C(=C(c2ccccc2)c2ccccc2)c2ccc(O)cc2)cc1 ?
RESULT: 6.32

QUERY: And for CC/C(=C(/c1ccc(N)cc1)c1ccc(OCCN)cc1)c1ccc(O)cc1 (mixture of isomers) ?
RESULT: 7.30

QUERY: Try this compound too: CCC(CC)=C(c1ccc(O)cc1)c1ccc(OCCN)cc1
RESULT: 6.69

QUERY: Quick one: CC/C(=C(/c1ccc(O)cc1)c1ccc(CCCN)cc1)c1ccc(O)cc1 (mixture of isomers)
RESULT: 6.53

QUERY: Next compound up: C/C(=C(/c1ccc(O)cc1)c1ccc(OCCN)cc1)c1ccccc1 (mixture of isomers)
RESULT: 7.56

QUERY: Input CC/C(=C(/c1ccc(O)cc1)c1ccc(OCCCN)cc1)c1ccccc1 (mixture of isomers)
RESULT: 7.67

QUERY: Would you mind doing CCC/C(=C(/c1ccc(O)cc1)c1ccc(OCCN)cc1)c1ccccc1 (mixture of isomers) as well?
RESULT: 7.44

QUERY: Now the same for NCCOc1ccc(/C(=C(/Cn2cnnc2)c2ccccc2)c2ccc(O)cc2)cc1
RESULT: 7.32

QUERY: How about this compound: CC/C(=C(/c1ccc(O)cc1)c1ccc(OCCN)cc1)c1ccc(O)cc1 (mixture of isomers)
RESULT: 8.02

QUERY: Same for NCCOc1ccc(/C(=C(\Cn2cnnc2)c2ccccc2)c2ccc(O)cc2)cc1
RESULT: 7.24

* * *

targetDesc: Estrogen receptor (Homo sapiens, UniProt P03372)
Sequence (P03372 whole entry): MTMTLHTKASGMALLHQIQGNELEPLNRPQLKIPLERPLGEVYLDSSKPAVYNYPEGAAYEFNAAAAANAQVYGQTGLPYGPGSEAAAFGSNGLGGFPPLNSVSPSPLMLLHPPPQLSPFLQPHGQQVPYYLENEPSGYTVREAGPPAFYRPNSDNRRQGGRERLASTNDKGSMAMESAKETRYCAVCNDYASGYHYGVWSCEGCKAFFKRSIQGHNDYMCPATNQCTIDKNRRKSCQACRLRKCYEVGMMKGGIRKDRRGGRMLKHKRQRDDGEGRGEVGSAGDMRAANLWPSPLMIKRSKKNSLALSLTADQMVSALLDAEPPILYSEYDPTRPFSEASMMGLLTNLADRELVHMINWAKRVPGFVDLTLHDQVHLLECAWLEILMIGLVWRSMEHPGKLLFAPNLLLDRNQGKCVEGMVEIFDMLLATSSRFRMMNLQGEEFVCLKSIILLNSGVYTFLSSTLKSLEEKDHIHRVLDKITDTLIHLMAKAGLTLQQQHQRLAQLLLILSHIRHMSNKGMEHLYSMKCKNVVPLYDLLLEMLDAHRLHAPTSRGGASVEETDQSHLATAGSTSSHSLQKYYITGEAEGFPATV
measurementProtocol: Displacement of fluorescein-labeled ES2 from human recombinant ERalpha receptor after 2 hrs by fluorescence polarization assay
observationType: pEC50
The value called pEC50 is obtained by taking minus log10 of the concentration in mol/L.

QUERY: Which pEC50 reading was recorded for the molecule CC/C(=C(/c1ccc(O)cc1)c1ccc(OCCN)cc1)c1ccc(O)cc1 (mixture of isomers) ?
RESULT: 7.82

QUERY: Consider next the molecule CC/C(=C(/c1ccc(N)cc1)c1ccc(OCCN)cc1)c1ccc(O)cc1 (mixture of isomers) in the same way.
RESULT: 6.84

QUERY: What do we get for NCCOc1ccc(/C(=C(/Cn2cnnc2)c2ccccc2)c2ccc(O)cc2)cc1 ?
RESULT: 7.25

QUERY: Please answer likewise for CCC(CC)=C(c1ccc(O)cc1)c1ccc(OCCN)cc1
RESULT: 6.56

QUERY: // repeat for CC/C(=C(/c1ccc(O)cc1)c1ccc(OCCN)cc1)c1ccc(F)cc1 (mixture of isomers) and report
RESULT: 7.06
